// values below are reported viability at 100 molar ratio
Assay: Cytotoxicity against human Raji cells assessed as cell viability at 100 molar ratio
Assay type: cell-based
Conditions: read-out: Activity
ASSAY ENDPOINT: viability at 100 molar ratio

* CCCCOC(=O)[C@H]1O[C@@H](O[C@H]2CC[C@]3(C)[C@H]4CC=C5[C@@H]6CC(C)(C)CC[C@]6(C(=O)O[C@@H]6O[C@H](CO)[C@@H](O)[C@H](O)[C@H]6O)CC[C@@]5(C)[C@]4(C)CC[C@H]3C2(C)C)[C@H](O)[C@@H](O)[C@@H]1O | > 80%
* COc1cc(-c2oc3cc(O)cc(O)c3c(=O)c2O[C@@H]2O[C@H](CO[C@@H]3O[C@@H](C)[C@H](O)[C@@H](O)[C@H]3O)[C@@H](O)[C@H](O)[C@H]2O[C@@H]2O[C@@H](C)[C@H](O)[C@@H](O)[C@H]2O)ccc1O | > 80%
* CCCCOC(=O)[C@H]1O[C@@H](O[C@H]2CC[C@]3(C)[C@H]4CC=C5[C@@H]6CC(C)(C)CC[C@]6(C(=O)O[C@@H]6O[C@H](CO)[C@@H](O)[C@H](O)[C@H]6O)CC[C@@]5(C)[C@]4(C)CC[C@H]3C2(C)C)[C@H](O)[C@@H](O[C@@H]2O[C@H](CO)[C@H](O)[C@H](O)[C@H]2O)[C@@H]1O | > 80%
* CCCCOC(=O)[C@H]1O[C@@H](O[C@H]2CC[C@]3(C)[C@H]4CC=C5[C@@H]6CC(C)(C)CC[C@]6(C(=O)O)CC[C@@]5(C)[C@]4(C)CC[C@H]3C2(C)C)[C@H](O[C@@H]2O[C@H](CO)[C@@H](O)[C@H](O)[C@H]2O)[C@@H](O[C@@H]2O[C@H](CO)[C@H](O)[C@H](O)[C@H]2O)[C@@H]1O | > 80%
* CCCCOC(=O)[C@H]1O[C@@H](O[C@H]2CC[C@]3(C)[C@H]4CC=C5[C@@H]6CC(C)(C)CC[C@]6(C(=O)O[C@@H]6O[C@H](CO)[C@@H](O)[C@H](O)[C@H]6O)CC[C@@]5(C)[C@]4(C)CC[C@H]3C2(C)C)[C@H](O[C@@H]2O[C@H](CO)[C@@H](O)[C@H](O)[C@H]2O)[C@@H](O[C@@H]2O[C@H](CO)[C@H](O)[C@H](O)[C@H]2O)[C@@H]1O | > 80%
* CC1(C)CC[C@]2(C(=O)O[C@@H]3O[C@H](CO)[C@@H](O)[C@H](O)[C@H]3O)CC[C@]3(C)C(=CC[C@@H]4[C@@]5(C)CC[C@H](O[C@@H]6O[C@H](C(=O)O)[C@@H](O)[C@H](O[C@@H]7O[C@H](CO)[C@H](O)[C@H](O)[C@H]7O)[C@H]6O)C(C)(C)[C@@H]5CC[C@]43C)[C@@H]2C1 [CALENDULAGYCOSIDE C] | > 80%
* O=c1c(O[C@@H]2O[C@H](CO)[C@@H](O)[C@H](O)[C@H]2O)c(-c2ccc(O)c(O)c2)oc2cc(O)cc(O)c12 | > 80%

---

Test system: OVCAR-3
Assay: Cytotoxicity against human OVCAR-3 cells after 48 hrs by SRB assay
Format: functional
Conditions: OVCAR-3, 48 h
ASSAY ENDPOINT: GI50 (µM)

* CCCCOC(=O)[C@H]1O[C@@H](O[C@H]2CC[C@]3(C)[C@H]4CC=C5[C@@H]6CC(C)(C)CC[C@]6(C(=O)O[C@@H]6O[C@H](CO)[C@@H](O)[C@H](O)[C@H]6O)CC[C@@]5(C)[C@]4(C)CC[C@H]3C2(C)C)[C@H](O)[C@@H](O)[C@@H]1O | 3.27
* COC(=O)[C@H]1O[C@@H](O[C@H]2CC[C@]3(C)[C@H]4CC=C5[C@@H]6CC(C)(C)CC[C@]6(C(=O)O)CC[C@@]5(C)[C@]4(C)CC[C@H]3C2(C)C)[C@H](O)[C@@H](O[C@@H]2O[C@H](CO)[C@H](O)[C@H](O)[C@H]2O)[C@@H]1O | 13.9
